Values compiled from patent US20250042997A1.

target: human Siglec-8 (full-length, on transfected CHO or 293 cells, or native on human eosinophils) (human, UniProt Q9NYZ4 17-499); assay: flow cytometry on 293 cells transiently transfected with full-length human Siglec-8; A647 anti-human Fc-gamma secondary; median fluorescence, nonlinear fit; table under the graph (Kd column without unit, concentration axis nM Ab)
Sequence (Q9NYZ4 17-499): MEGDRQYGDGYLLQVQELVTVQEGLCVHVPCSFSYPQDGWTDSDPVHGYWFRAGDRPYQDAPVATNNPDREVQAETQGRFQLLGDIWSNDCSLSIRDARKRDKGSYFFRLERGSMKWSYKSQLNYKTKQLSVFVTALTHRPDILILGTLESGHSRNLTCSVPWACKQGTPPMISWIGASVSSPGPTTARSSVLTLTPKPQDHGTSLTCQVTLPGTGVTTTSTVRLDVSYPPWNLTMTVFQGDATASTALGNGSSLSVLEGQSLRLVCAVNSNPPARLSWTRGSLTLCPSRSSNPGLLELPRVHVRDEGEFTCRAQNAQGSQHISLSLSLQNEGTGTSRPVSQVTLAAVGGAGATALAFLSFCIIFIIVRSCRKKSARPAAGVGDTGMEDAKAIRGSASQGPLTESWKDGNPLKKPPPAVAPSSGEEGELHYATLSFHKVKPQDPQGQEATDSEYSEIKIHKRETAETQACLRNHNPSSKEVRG
Property name: Kd (pM)
The response must be a number in pM with no trailing unit.

Sample answers from the record:
>  <Binder>
Siglec8 hzG2v26, monomeric VHH-hIgG1 fusion (Fc NNT) (Fc fusion, Monomeric format; not shown: non-dimerizing human IgG1 Fc variant lacking a hinge (Fc NNT)) EVQLLESGGGLVRPGGSLRLSCAASGSISIFSMYVVAWYRQAPGKQREWVAFIQRGGTANYAESAKGRFTISRDNAKNTVYLQMSSLRAEDTAVYYCNYINSDNEIGGPWGQGTLVTVKP

>  <Property name>
Kd

>  <Value unit>
pM

>  <Meas value>
151

$$$$
>  <Binder>
llama anti-Siglec8-G2 VHH (lmG2), monomeric VHH-hIgG1 fusion (Fc NNT) (Fc fusion, Monomeric format; also called parental clone; not shown: non-dimerizing human IgG1 Fc variant lacking a hinge (Fc NNT)) QVTLKESGGGLVRTGGSLRLSCAASGSISIFSMYVVAWYRQAPGKQREWVAFIQRGGTANYADSAKGRFTISRDNAKNTVYLQMASLKPDDTAVYYCNYINSDNEIGGPWGQGTQVTVKP

>  <Property name>
Kd

>  <Value unit>
pM

>  <Meas value>
114

$$$$

Ask: Can you look up the measured Kd of Siglec8 hzG2v25, monomeric VHH-hIgG1 fusion (Fc NNT) (Fc fusion, Monomeric format; not shown: non-dimerizing human IgG1 Fc variant lacking a hinge (Fc NNT)) EVQLLESGGGLVQTGGSLRLSCAASGSISIFSMYVVAWYRQAPGKQREWVAFIQRGGTANYAESAKGRFTISRDNAKNTVYLQMSSLRAEDTAVYYCNYINSDNEIGGPWGQGTLVTVKP for me?
Reply: 91.2

Ask: Recorded Kd of Siglec8 hzG2v18, monomeric VHH-hIgG1 fusion (Fc NNT) (Fc fusion, Monomeric format; not shown: non-dimerizing human IgG1 Fc variant lacking a hinge (Fc NNT)) EVQLLESGGGEVQPGGSLRLSCAASGSISIFSKYVVAWYRQAPGKEREWVAFIQRGGTANYAESAKGRFTISRDNAKNTVYLQMSSLRAEDTAVYYCNYINSDNEIGGPWGQGTLVTVKP , please.
Reply: 263
